- Experimental System: Tumor necrosis factor receptor superfamily member 10B (Homo sapiens) (UniProt O14763)
- Sequence (O14763 whole entry, looked up): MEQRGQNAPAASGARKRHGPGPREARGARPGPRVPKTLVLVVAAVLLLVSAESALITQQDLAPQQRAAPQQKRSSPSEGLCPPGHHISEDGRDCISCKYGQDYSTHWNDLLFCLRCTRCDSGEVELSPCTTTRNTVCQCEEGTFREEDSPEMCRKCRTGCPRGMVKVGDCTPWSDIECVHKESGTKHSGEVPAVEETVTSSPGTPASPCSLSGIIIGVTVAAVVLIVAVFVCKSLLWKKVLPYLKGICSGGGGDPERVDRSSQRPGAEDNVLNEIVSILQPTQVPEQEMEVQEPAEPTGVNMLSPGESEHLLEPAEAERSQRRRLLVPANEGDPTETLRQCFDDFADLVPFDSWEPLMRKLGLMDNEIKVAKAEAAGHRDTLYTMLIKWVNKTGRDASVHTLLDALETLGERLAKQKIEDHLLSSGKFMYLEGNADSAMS
- Assay Procedure: TRAIL sensitizers in caspase-8 expressing neuroblastoma cells, dose response, NB7 cells plus caspase-8, luminescence, panel (AID 652002)
- Assay Conditions: NB7 neuroblastoma +caspase-8, TRAIL sensitization, luminescence viability, NB7+Caspase-8, with TRAIL, run 2; at 12.5 µM (top of the series)
Flag rule - activity, % sensitization less than 40% flags rule met; the remaining entries get rule not met.

See these solved cases before continuing.
Cc1nn(-c2ccccc2)c2nc(N)c(C#N)c(-c3ccc(F)cc3)c12 :: rule met
COc1cccc(N/C=C/C(=O)c2ccc(Cl)cc2)c1 :: rule met
NNC(=O)C1CCCn2c1nc1sc3c(c1c2=O)CCCC3 (stereo not drawn) :: rule met
O=C(Oc1c(CN2CCOCC2)cc(Cl)c2cccnc12)c1cccs1 :: rule not met
CC(C)(C)OC(=O)NCc1ccc(NC(=O)c2nc[nH]c2C(=O)N[C@@H](Cc2ccccc2)C(=O)OCc2ccccc2)cc1 :: rule met
CCN(CC)c1ccc(NC(=O)Nc2ccccc2)cc1 :: rule not met

Asked: Decide: activity, % sensitization of `CCCCCCc1cc2cc(S(=O)(=O)c3ccc(F)c(Cl)c3)c(=O)oc2cc1O` strictly below 40%?
Given back: rule met

Asked: Decide: activity, % sensitization of CCCCCc1cc(=O)oc2c(C(CCN(CC)CC)c3cc(OC)c(OC)c(OC)c3)c(OC)cc(OC)c12 (stereo not drawn) strictly below 40%?
Given back: rule not met

Asked: Decide: activity, % sensitization of CC1(Cc2ccc(OC(F)(F)F)cc2)C(=O)Nc2ccc(S(=O)(=O)NC3CCCCC3)cc21 (stereo not drawn) strictly below 40%?
Given back: rule met

Asked: Decide: activity, % sensitization of `COc1ccc(/C=N/Nc2nc3ccccc3c(=O)n2-c2ccccc2)cc1OC` strictly below 40%?
Given back: rule not met

Asked: Decide: activity, % sensitization of `O=C(Nc1ccc2[nH]ccc2c1)c1cccs1` strictly below 40%?
Given back: rule not met
